Exercise: for every item that follows, state its recorded Dmax.
- Target or system: HiBit-BRG1 fusion protein in stable HeLa cell line expressing HiBit-BRG1 and LgBit (Homo sapiens, UniProt P51532)
- Construct: expressed in transfected cells
- Sequence (P51532 whole entry, the tested form may be a part): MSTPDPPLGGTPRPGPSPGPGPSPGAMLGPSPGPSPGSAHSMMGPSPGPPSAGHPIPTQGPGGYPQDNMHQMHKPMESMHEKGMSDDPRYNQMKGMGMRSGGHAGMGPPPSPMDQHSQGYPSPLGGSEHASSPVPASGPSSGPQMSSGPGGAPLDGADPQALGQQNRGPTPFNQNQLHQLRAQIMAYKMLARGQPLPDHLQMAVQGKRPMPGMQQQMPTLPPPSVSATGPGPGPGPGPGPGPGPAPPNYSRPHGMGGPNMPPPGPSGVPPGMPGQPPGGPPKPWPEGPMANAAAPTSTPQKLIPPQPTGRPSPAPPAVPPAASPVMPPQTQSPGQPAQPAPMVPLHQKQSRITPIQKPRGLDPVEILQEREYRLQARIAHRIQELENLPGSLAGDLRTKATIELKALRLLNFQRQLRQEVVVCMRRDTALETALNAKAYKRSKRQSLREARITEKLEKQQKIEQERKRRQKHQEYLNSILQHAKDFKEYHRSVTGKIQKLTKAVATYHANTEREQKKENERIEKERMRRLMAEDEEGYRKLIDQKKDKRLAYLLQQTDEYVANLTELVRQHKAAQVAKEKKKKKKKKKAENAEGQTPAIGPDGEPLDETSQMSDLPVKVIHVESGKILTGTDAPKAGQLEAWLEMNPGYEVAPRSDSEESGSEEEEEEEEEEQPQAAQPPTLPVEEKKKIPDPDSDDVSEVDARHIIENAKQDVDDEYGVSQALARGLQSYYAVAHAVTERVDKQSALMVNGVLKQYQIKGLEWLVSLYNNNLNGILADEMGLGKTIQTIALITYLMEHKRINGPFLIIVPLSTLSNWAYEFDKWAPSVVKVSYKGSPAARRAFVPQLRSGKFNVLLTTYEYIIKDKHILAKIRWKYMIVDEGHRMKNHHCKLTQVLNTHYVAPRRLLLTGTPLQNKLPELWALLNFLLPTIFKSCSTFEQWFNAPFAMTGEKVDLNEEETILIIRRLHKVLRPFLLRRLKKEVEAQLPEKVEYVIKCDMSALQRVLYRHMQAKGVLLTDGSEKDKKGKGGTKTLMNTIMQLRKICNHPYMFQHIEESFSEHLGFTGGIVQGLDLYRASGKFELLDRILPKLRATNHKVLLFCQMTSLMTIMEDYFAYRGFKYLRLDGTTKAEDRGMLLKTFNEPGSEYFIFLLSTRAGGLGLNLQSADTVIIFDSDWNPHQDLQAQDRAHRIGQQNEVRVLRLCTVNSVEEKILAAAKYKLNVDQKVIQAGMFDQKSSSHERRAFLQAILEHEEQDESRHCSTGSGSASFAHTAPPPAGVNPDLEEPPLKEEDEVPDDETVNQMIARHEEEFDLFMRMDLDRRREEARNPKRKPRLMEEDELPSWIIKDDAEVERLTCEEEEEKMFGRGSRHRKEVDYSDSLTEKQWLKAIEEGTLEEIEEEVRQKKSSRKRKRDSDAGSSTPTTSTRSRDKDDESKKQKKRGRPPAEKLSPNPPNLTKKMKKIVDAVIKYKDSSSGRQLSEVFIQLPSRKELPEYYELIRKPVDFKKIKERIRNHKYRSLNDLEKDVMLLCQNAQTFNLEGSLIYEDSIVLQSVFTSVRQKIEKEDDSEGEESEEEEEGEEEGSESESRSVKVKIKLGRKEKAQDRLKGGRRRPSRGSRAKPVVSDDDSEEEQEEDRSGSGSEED
- Assay remarks: HiBiT-BRG1 cell-based degradation assay (Nano-Glo HiBiT, 24 h)
- Condition summary: HeLa HiBit-BRG1/LgBit cells, top dose 30 μM, read-out: BRG1 HiBit Degradation Maximum (%)

Please review the following examples before continuing.
>  <Compound>
Cc1ncsc1-c1ccc([C@H](C)NC(=O)[C@@H]2C[C@@H](O)CN2C(=O)[C@@H](c2cc(N3CC4(CN(c5ccc6cc(-c7cccc(F)c7O)nnc6c5)C4)C3)no2)C(C)C)cc1

>  <Dmax>
< 50%

$$$$
>  <Compound>
Cc1ncsc1-c1ccc([C@H](C)NC(=O)[C@@H]2C[C@@H](O)CN2C(=O)C(C(C)C)n2cc(N3CCC4(CC3)CCN4c3ccc4cc(-c5ccccc5O)nnc4c3)nn2)cc1 (stereo partly shown)

>  <Dmax>
> 50%

$$$$
>  <Compound>
Cc1ncsc1-c1ccc([C@H](C)NC(=O)[C@@H]2C[C@@H](O)CN2C(=O)C(C(C)C)n2cc(N3CCC4C(C3)CN4c3ccc4cc(-c5ccccc5O)nnc4c3)nn2)cc1 (stereo partly shown)

>  <Dmax>
> 75%

$$$$
>  <Compound>
Cc1ncsc1-c1ccc([C@H](C)NC(=O)[C@@H]2C[C@@H](O)CN2C(=O)[C@H](C(C)C)n2cc(N3CC4(CC(c5ccc6cc(-c7ccccc7O)nnc6c5)C4)C3)nn2)cc1

>  <Dmax>
> 75%

$$$$
>  <Compound>
Cc1ncsc1-c1ccc([C@H](C)NC(=O)[C@@H]2C[C@@H](O)CN2C(=O)[C@@H](c2cc(N3CCC4(CC3)CC(N(C)c3ccc5cc(-c6ccccc6O)nnc5c3)C4)no2)C(C)C)cc1

>  <Dmax>
> 75%

$$$$
>  <Compound>
Cc1ncsc1-c1ccc([C@H](C)NC(=O)[C@@H]2C[C@@H](O)CN2C(=O)[C@@H](c2ccnc(N3CC4(CN(c5ccc6nnc(-c7ccccc7O)cc6c5)C4)C3)c2)C(C)C)cc1

>  <Dmax>
< 50%

$$$$
>  <Compound>
Cc1ncsc1-c1ccc([C@H](C)NC(=O)[C@@H]2C[C@@H](O)CN2C(=O)[C@@H](c2cc(-c3cnc(N4CC(c5cc(F)c6cc(-c7ccccc7O)nnc6c5)C4)nc3)no2)C(C)C)cc1

>  <Dmax>
< 50%

$$$$
>  <Compound>
CC(C)C(C(=O)N1C[C@H](O)C[C@H]1C(=O)N[C@@H](C)c1ccc(Cl)cc1)c1cc(N2CC3(CN(c4ccc5cc(-c6ccccc6O)nnc5c4)C3)C2)no1 (stereo partly shown)

>  <Dmax>
< 50%

$$$$

For every item below, please supply its Dmax.
1. Cc1ncsc1-c1ccc([C@H](C)NC(=O)[C@@H]2C[C@@H](O)CN2C(=O)[C@@H](c2cc(N3CCC4(CCN(c5ccc6cc(-c7ccccc7O)nnc6c5)CC4)CC3)no2)C(C)C)cc1
2. Cc1ncsc1-c1ccc([C@H](C)NC(=O)[C@@H]2C[C@@H](O)CN2C(=O)[C@H](C2CCC2)n2cc(N3CC4(CC(c5ccc6cc(-c7ccccc7O)nnc6c5)C4)C3)nn2)cc1

1: > 75%; 2: > 75%

---

- Target or system: HiBit-BRG1 fusion protein in stable HeLa cell line expressing HiBit-BRG1 and LgBit (Homo sapiens, UniProt P51532)
- Construct: expressed in transfected cells
- Assay remarks: HiBiT-BRG1 cell-based degradation assay (Nano-Glo HiBiT, 24 h)
- Condition summary: HeLa HiBit-BRG1/LgBit cells, top dose 30 μM, read-out: BRG1 HiBit Degradation Maximum (%)
Observable: Dmax

Please review the following examples before continuing.
>  <Structure smiles string>
Cc1ncsc1-c1ccc([C@H](C)NC(=O)[C@@H]2C[C@@H](O)CN2C(=O)[C@@H](c2cc(N3CC4(C3)CN(c3cc5nnc(-c6ccccc6O)cc5cc3C(F)F)C4)no2)C(C)C)cc1

>  <Observable>
Dmax

>  <Experimental result>
> 50%

$$$$
>  <Structure smiles string>
CC(C)[C@@H](C(=O)N1C[C@H](O)C[C@H]1C(=O)N[C@@H](C)c1ccccc1)c1cc(N2CC[C@H](c3ccc4cc(-c5ccccc5O)nnc4c3)C2)no1

>  <Observable>
Dmax

>  <Experimental result>
< 50%

$$$$
>  <Structure smiles string>
Cc1ncsc1-c1ccc([C@H](C)NC(=O)[C@@H]2C[C@@H](O)CN2C(=O)[C@@H](c2cc(N3CCC4(CC3)CN(c3ccc5cc(-c6ccccc6O)nnc5c3)CCN4C)no2)C(C)C)cc1

>  <Observable>
Dmax

>  <Experimental result>
< 50%

$$$$

For every item below, please supply its Dmax.
1. Cc1cc(N2CCC(c3ccc4nnc(-c5ccccc5O)cc4c3)CC2)ncc1-c1cc([C@H](C(=O)N2C[C@H](O)C[C@H]2C(=O)N[C@@H](C)c2ccc(-c3scnc3C)cc2)C(C)C)on1
2. COC[C@H]1CN(c2cc([C@H](C(=O)N3C[C@H](O)C[C@H]3C(=O)N[C@@H](C)c3ccc(-c4scnc4C)cc3)C(C)C)on2)CCN1c1ccc2cc(-c3ccccc3O)nnc2c1

["> 50%", "< 50%"]

---

- Target or system: HiBiT-BRM fusion protein in stable HeLa cell line (Homo sapiens, UniProt P51531)
- Construct: expressed in transfected cells
- Sequence (P51531 whole entry, the tested form may be a part): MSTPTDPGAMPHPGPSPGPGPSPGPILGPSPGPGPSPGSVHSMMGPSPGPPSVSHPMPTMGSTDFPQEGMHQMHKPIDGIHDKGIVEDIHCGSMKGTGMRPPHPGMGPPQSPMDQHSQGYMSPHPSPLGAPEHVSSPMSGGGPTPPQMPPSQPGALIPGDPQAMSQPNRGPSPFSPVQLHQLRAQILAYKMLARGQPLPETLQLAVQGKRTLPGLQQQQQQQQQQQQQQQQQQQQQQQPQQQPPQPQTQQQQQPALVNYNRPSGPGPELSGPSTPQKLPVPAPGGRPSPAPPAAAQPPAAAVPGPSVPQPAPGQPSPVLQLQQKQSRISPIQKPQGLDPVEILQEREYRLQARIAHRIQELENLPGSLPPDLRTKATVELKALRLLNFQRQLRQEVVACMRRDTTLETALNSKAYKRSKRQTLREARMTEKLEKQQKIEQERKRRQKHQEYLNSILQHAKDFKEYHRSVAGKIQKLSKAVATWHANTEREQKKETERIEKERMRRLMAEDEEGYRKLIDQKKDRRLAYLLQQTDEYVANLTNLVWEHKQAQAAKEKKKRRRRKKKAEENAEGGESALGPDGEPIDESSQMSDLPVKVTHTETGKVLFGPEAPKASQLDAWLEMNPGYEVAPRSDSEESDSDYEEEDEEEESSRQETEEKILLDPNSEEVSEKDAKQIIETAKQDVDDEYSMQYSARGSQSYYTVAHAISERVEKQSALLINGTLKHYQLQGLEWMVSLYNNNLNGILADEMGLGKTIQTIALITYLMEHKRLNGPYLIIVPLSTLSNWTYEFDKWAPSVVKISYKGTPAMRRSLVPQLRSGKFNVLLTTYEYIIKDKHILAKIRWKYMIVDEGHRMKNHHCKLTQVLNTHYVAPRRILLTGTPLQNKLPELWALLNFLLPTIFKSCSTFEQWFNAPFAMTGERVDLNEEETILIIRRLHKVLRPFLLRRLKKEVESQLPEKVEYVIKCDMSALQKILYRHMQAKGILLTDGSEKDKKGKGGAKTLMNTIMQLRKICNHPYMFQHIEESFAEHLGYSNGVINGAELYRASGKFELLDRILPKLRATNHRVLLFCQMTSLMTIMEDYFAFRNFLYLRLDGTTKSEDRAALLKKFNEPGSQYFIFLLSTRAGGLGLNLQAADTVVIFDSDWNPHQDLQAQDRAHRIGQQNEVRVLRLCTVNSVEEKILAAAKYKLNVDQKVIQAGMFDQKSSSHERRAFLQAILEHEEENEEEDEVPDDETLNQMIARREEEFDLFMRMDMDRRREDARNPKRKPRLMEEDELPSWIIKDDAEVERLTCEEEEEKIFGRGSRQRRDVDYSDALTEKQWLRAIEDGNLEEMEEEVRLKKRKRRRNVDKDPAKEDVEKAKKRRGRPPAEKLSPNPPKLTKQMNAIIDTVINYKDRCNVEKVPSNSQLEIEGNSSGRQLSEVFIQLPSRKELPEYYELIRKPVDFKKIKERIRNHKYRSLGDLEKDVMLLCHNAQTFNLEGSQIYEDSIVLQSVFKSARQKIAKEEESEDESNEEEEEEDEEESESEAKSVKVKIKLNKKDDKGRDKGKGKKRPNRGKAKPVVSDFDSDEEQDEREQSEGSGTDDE
- Assay remarks: HiBiT-BRM cell-based degradation assay (Nano-Glo HiBiT Lytic Detection, 24 h)
- Parameters: scale not given here
- Condition summary: HeLa HiBiT-BRM cells, read-out: BRM HiBit Degradation IC50
Exercise: for every item that follows, state its recorded DC50.

Please review the following examples before continuing.
>  <Compound>
Cc1ncsc1-c1ccc([C@H](C)NC(=O)[C@@H]2C[C@@H](O)CN2C(=O)C(C(C)C)n2cc(N3CC4CN(c5ccc6cc(-c7ccccc7O)nnc6c5)CCC43)nn2)cc1 (stereo partly shown) [Compound 250]

>  <DC50>
< 10 nM

$$$$
>  <Compound>
C#Cc1ccc([C@H](C)NC(=O)[C@@H]2C[C@@H](O)CN2C(=O)[C@@H](c2cc(N3CC4(CN(c5ccc6cc(-c7ccccc7O)nnc6c5)C4)C3)no2)C(C)C)c(Cl)c1 [Compound 284]

>  <DC50>
< 10 nM

$$$$
>  <Compound>
Cc1ncsc1-c1ccc([C@H](C)NC(=O)[C@@H]2C[C@@H](O)CN2C(=O)[C@@H](c2cc(-c3cnc(N4CCN(c5ccc6cc(-c7ccccc7O)nnc6c5)CC4)nc3)no2)C(C)C)cc1 [Compound 40]

>  <DC50>
< 10 nM

$$$$
>  <Compound>
Cc1ncsc1-c1ccc([C@H](C)NC(=O)[C@@H]2C[C@@H](O)CN2C(=O)[C@@H](c2cc(N3CCC4(CC3)CC(N(C)c3ccc5cc(-c6ccccc6O)nnc5c3)C4)no2)C(C)C)cc1 [Compound 122]

>  <DC50>
< 10 nM

$$$$
>  <Compound>
Cc1ncsc1-c1ccc([C@H](C)NC(=O)[C@@H]2C[C@@H](O)CN2C(=O)[C@@H](c2cc(N3CC4(CCN4c4ccc5cc(-c6ccccc6O)nnc5c4)C3)no2)C(C)C)cc1 [Compound 100]

>  <DC50>
> 10 nM

$$$$
>  <Compound>
Cc1cc(N2CCC(c3ccc4cc(-c5ccccc5O)nnc4c3)CC2)ncc1-c1cc([C@H](C(=O)N2C[C@H](O)C[C@H]2C(=O)N[C@@H](C)c2ccc(-c3scnc3C)cc2)C(C)C)on1 [Compound 81]

>  <DC50>
< 10 nM

$$$$
>  <Compound>
Cc1ncsc1-c1ccc([C@H](C)NC(=O)[C@@H]2C[C@@H](O)CN2C(=O)[C@@H](c2cc(-c3cnc(N4CC(c5cc(C6CC6)c6cc(-c7ccccc7O)nnc6c5)C4)nc3)no2)C(C)C)cc1 [Compound 77]

>  <DC50>
< 10 nM

$$$$
>  <Compound>
Cc1ncsc1-c1ccc([C@H](C)NC(=O)[C@@H]2C[C@@H](O)CN2C(=O)[C@@H](c2cc(N3CCC4(CC[C@H](c5ccc6cc(-c7ccccc7O)nnc6c5)C4)CC3)no2)C(C)C)cc1 [Compound 92]

>  <DC50>
< 10 nM

$$$$
>  <Compound>
Cc1ncsc1-c1ccc([C@H](C)NC(=O)[C@@H]2C[C@@H](O)CN2C(=O)[C@H](C(C)C)n2cc(-c3cc4cc(-c5ccccc5O)nnc4cc3C#N)nn2)cc1 [Compound 170]

>  <DC50>
> 10 nM

$$$$

Turning to the following compound.
Entry under review: Cc1ncsc1-c1ccc([C@H](C)NC(=O)[C@@H]2C[C@@H](O)CN2C(=O)[C@@H](c2cc(N3CCN([C@H]4CCN(c5ccc6cc(-c7ccccc7O)nnc6c5)CC4(F)F)CC3)no2)C(C)C)cc1 [Compound 115] . Reported DC50?
< 10 nM
